protocol.summary: acute oral toxicity LD50 in mice (Reed-Muench method modified by Pizzi)
conditions.used: mouse, in vivo; oral administration to mice; as free base
Task for the reader: assign each of the following compounds its reported LD50.
Numbers only, in mg/kg.

1. O=C(OCCN1CCCC1)c1ccccc1Nc1ccnc2cc(Cl)ccc12: 2000
2. O=C(OCCN1CCCCC1)c1ccccc1Nc1ccnc2cc(C(F)(F)F)ccc12: 635
3. O=C(OCCN1CCCC1)c1ccccc1Nc1ccnc2cc(C(F)(F)F)ccc12: 630

Let us examine a further case.
Look up LD50 for this compound: O=C(OCC(O)CO)c1ccccc1Nc1ccnc2cc(Cl)ccc12 (stereo not drawn) [Glafenine, reference compound]
2100
